Data credit: ChEMBL document CHEMBL1144876

# bioavailability per record follows
ASSAY: Oral bioavailability in rat
Assay type: ADME, organism-based
RECORDED_CONDITIONS: in vivo
Unit % implied. Number only.

A selection of reference data follows.
{"columns": ["STRUCTURE", "TEST_READOUT", "NUMERIC_READOUT"],
 "data": [
  ["CCCN1C(=O)[C@H](NC(=O)Nc2ccc(N3CCC(N4CCCCC4)CC3)cc2)N=C(c2ccc(C)cc2)c2ccccc21", "bioavailability", 32],
  ["CCCN1C(=O)[C@H](NC(=O)Nc2ccc(N3CCN(c4ccncc4)CC3)cc2)N=C(C2CCCCC2)c2ccccc21", "bioavailability", 2.5],
  ["CCCN1C(=O)[C@H](NC(=O)Nc2ccc(N3CCN(c4ccncc4)CC3)cc2)N=C(CCc2ccccc2)c2ccccc21", "bioavailability", 3.4],
  ["CCCN1C(=O)[C@H](NC(=O)Nc2ccc(N3CCC(N4CCCCC4)CC3)cc2)N=C(C2CCCCC2)c2ccccc21", "bioavailability", 10]
]}

Please look up its bioavailability: `CCCN1C(=O)[C@H](NC(=O)Nc2ccc(N3CCC(N4CCCCC4)CC3)cc2)N=C(CCc2ccccc2)c2ccccc21`
4.9

----------
ASSAYED_TARGET: B1 bradykinin receptor (Homo sapiens)
Sequence (P46663 whole entry): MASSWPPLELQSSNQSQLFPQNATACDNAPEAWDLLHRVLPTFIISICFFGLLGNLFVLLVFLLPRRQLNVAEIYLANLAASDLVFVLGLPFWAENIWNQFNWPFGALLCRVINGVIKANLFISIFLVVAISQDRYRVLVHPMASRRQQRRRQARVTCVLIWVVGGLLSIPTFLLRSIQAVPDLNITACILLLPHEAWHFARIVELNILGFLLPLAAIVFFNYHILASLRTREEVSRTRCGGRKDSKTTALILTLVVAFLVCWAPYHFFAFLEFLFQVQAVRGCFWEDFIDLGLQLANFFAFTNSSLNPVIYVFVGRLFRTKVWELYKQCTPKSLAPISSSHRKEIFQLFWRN
ASSAY: Compound was tested for inhibition against human bradykinin B1 receptor using FLIPR assay
TEST_READOUT: log10 IC50 (log10 of the value in nM)
In our notation, the value equals log10 of IC50 in nM.

A selection of reference data follows.
{"columns": ["COMPOUND", "log10 IC50"],
 "data": [
  ["CCCN1C(=O)C(NC(=O)Nc2ccc(N3CCC(N(C)C)CC3)cc2)N=C(C2CCCCC2)c2ccccc21 (stereo unspecified)", 2.21],
  ["CCCN1C(=O)[C@H](NC(=O)Nc2ccc(N3CCC(N4CCCCC4)CC3)cc2)N=C(CCc2ccccc2)c2ccccc21", 0.68],
  ["CCCN1C(=O)[C@@H](NC(=O)Nc2ccc(N3CCC(N4CCCCC4)CC3)cc2)N=C(C2CCCCC2)c2ccccc21", 3.34],
  ["CCCN1C(=O)[C@H](NC(=O)Nc2ccc(N3CCN(c4ccncc4)CC3)cc2)N=C(C2CCCCC2)c2ccccc21", 0.90],
  ["CCCN1C(=O)[C@H](NC(=O)Nc2ccc(N3CCC(N4CCCCC4)CC3)cc2)N=C(c2ccc(C)cc2)c2ccccc21", 1.81]
]}

Continue with the next compound.
Form entry - test system: B1 bradykinin receptor (Homo sapiens); read-out: log10 IC50; compound: `CCCN1C(=O)[C@H](NC(=O)Nc2ccc(N3CCC(N4CCCCC4)CC3)cc2)N=C(C2CCCCC2)c2ccccc21`
1.39

----------
ASSAYED_TARGET: B1 bradykinin receptor (Homo sapiens, UniProt P46663)
Sequence (P46663 whole entry): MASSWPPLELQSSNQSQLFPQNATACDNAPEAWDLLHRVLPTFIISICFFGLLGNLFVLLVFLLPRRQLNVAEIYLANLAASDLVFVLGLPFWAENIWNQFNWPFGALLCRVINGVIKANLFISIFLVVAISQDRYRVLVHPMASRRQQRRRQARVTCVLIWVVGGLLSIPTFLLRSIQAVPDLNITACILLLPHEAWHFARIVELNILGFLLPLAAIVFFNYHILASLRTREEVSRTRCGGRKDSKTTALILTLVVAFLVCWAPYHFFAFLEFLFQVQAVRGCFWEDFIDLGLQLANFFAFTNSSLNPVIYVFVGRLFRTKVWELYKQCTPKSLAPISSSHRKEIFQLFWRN
TEST_READOUT: pKi
Reminder that pKi means the negative base-10 logarithm of the concentration expressed in mol/L.

A selection of reference data follows.
{"columns": ["COMPOUND", "ASSAYED_TARGET", "pKi"],
 "data": [
  ["CCCN1C(=O)[C@@H](NC(=O)Nc2ccc(N3CCC(N4CCCCC4)CC3)cc2)N=C(C2CCCCC2)c2ccccc21", "B1 bradykinin receptor (Homo sapiens, UniProt P46663)", 5.99],
  ["CCCN1C(=O)[C@H](NC(=O)Nc2ccc(N3CCN(c4ccncc4)CC3)cc2)N=C(C2CCCCC2)c2ccccc21", "B1 bradykinin receptor (Homo sapiens, UniProt P46663)", 8.88],
  ["CCCN1C(=O)[C@H](NC(=O)Nc2ccc(N3CCC(N4CCCCC4)CC3)cc2)N=C(c2ccc(C)cc2)c2ccccc21", "B1 bradykinin receptor (Homo sapiens, UniProt P46663)", 7.87]
]}

Form entry - test system: B1 bradykinin receptor (Homo sapiens, UniProt P46663); read-out: pKi; compound: CCCN1C(=O)C(NC(=O)Nc2ccc(N3CCN(c4cccnc4)CC3)cc2)N=C(C2CCCCC2)c2ccccc21 (configuration not stated)
7.07

Queued: `CCCN1C(=O)[C@H](NC(=O)Nc2ccc(N3CCC(N4CCCCC4)CC3)cc2)N=C(C2CCCCC2)c2ccccc21`
8.24

----------
# Ki per record follows
ASSAYED_TARGET: B1 bradykinin receptor (Rattus norvegicus, UniProt P97583)
Sequence (P97583 whole entry): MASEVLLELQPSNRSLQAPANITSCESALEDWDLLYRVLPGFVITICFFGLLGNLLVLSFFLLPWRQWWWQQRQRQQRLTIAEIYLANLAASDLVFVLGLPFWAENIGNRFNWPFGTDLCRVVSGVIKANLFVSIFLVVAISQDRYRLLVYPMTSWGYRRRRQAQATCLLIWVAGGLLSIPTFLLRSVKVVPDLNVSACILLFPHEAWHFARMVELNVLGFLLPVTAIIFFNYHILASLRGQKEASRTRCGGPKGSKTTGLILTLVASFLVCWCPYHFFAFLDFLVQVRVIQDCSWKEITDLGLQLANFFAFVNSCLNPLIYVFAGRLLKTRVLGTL
Unit nM implied. Number only.

A selection of reference data follows.
{"columns": ["STRUCTURE", "Ki [nM]"],
 "data": [
  ["CCCN1C(=O)[C@H](NC(=O)Nc2ccc(N3CCC(N4CCCCC4)CC3)cc2)N=C(c2ccc(C)cc2)c2ccccc21", 17],
  ["CCCN1C(=O)[C@H](NC(=O)Nc2ccc(N3CCC(N4CCCCC4)CC3)cc2)N=C(CCc2ccccc2)c2ccccc21", 1.97],
  ["CCCN1C(=O)[C@H](NC(=O)Nc2ccc(N3CCC(N4CCCCC4)CC3)cc2)N=C(C2CCCCC2)c2ccccc21", 18.3]
]}

Please look up its Ki: `CCCN1C(=O)[C@H](NC(=O)Nc2ccc(N3CCN(c4ccncc4)CC3)cc2)N=C(CCc2ccccc2)c2ccccc21`
0.92

----------
ASSAYED_TARGET: B1 bradykinin receptor (Rattus norvegicus)
ASSAY: Compound was tested for inhibition against rat Bradykinin receptor B1 using FLIPR assay
TEST_READOUT: pIC50
Reminder that pIC50 means the negative base-10 logarithm of the concentration expressed in mol/L.

A selection of reference data follows.
{"columns": ["STRUCTURE", "pIC50"],
 "data": [
  ["CCCN1C(=O)[C@H](NC(=O)Nc2ccc(N3CCC(N4CCCCC4)CC3)cc2)N=C(C2CCCCC2)c2ccccc21", 7.23],
  ["CCCN1C(=O)[C@H](NC(=O)Nc2ccc(N3CCN(c4ccncc4)CC3)cc2)N=C(CCc2ccccc2)c2ccccc21", 8.55],
  ["CCCN1C(=O)[C@H](NC(=O)Nc2ccc(N3CCC(N4CCCCC4)CC3)cc2)N=C(c2ccc(C)cc2)c2ccccc21", 7.57],
  ["CCCN1C(=O)[C@H](NC(=O)Nc2ccc(N3CCN(c4ccncc4)CC3)cc2)N=C(C2CCCCC2)c2ccccc21", 7.62]
]}

Continue with the next compound.
Please look up its pIC50: `CCCN1C(=O)[C@H](NC(=O)Nc2ccc(N3CCC(N4CCCCC4)CC3)cc2)N=C(CCc2ccccc2)c2ccccc21`
8.14

----------
ASSAY: Half life after intravenous administration in rat
Type: ADME, organism-based
RECORDED_CONDITIONS: in vivo
TEST_READOUT: half-life (h)
Unit h implied. Number only.

A selection of reference data follows.
{"columns": ["STRUCTURE", "UNITS", "NUMERIC_READOUT"],
 "data": [
  ["CCCN1C(=O)[C@H](NC(=O)Nc2ccc(N3CCC(N4CCCCC4)CC3)cc2)N=C(c2ccc(C)cc2)c2ccccc21", "h", 4.3],
  ["CCCN1C(=O)[C@H](NC(=O)Nc2ccc(N3CCN(c4ccncc4)CC3)cc2)N=C(C2CCCCC2)c2ccccc21", "h", 2.3],
  ["CCCN1C(=O)[C@H](NC(=O)Nc2ccc(N3CCN(c4ccncc4)CC3)cc2)N=C(CCc2ccccc2)c2ccccc21", "h", 2.7],
  ["CCCN1C(=O)[C@H](NC(=O)Nc2ccc(N3CCC(N4CCCCC4)CC3)cc2)N=C(CCc2ccccc2)c2ccccc21", "h", 2.4]
]}

Please look up its half-life: `CCCN1C(=O)[C@H](NC(=O)Nc2ccc(N3CCC(N4CCCCC4)CC3)cc2)N=C(C2CCCCC2)c2ccccc21`
3.2
